- Subject Of Test: Urokinase-type plasminogen activator (Homo sapiens, UniProt P00749)
Value Type: Ki (nM)
All answers are understood in nM, so give the number only.

Problem: What value of measured Ki is listed for C[C@H](NC(=O)[C@@H](CO)NS(=O)(=O)Cc1ccccc1)C(=O)NCc1ccc(NC(=N)N)cc1 ?
Result: 16

* * *

- Subject Of Test: Urokinase-type plasminogen activator (Mus musculus, UniProt P06869)
- Sequence (P06869 21-178 limits assumed): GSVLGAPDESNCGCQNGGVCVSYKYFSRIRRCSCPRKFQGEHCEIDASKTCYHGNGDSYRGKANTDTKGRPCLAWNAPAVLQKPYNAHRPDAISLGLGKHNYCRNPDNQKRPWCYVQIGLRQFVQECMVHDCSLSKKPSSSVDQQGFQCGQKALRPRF
- Sequence (P06869 180-433 limits assumed): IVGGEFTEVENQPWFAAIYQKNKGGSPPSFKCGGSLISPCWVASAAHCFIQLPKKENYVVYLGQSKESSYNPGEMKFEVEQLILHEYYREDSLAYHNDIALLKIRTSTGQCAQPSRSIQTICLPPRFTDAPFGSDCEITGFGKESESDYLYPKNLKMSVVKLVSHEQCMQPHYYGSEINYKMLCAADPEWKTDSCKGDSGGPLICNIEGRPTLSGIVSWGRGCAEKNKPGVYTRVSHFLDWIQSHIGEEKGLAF
Value Type: pIC50
FYI, pIC50 means -log10 of a concentration in mol per litre.

Problem: Which pIC50 is reported with Urokinase-type plasminogen activator (Mus musculus, UniProt P06869) for this entry: COC(=O)NC(Cc1ccc(NC(=N)N)cc1)P(=O)(Oc1ccc(NC(C)=O)cc1)Oc1ccc(NC(C)=O)cc1 (configuration not stated) ?
Result: 8.10

Problem: Entry COC(=O)NC(Cc1ccc(NC(=N)N)cc1)P(=O)(Oc1ccccc1)Oc1ccccc1 (configuration not stated) please
Result: 7.49

* * *

- Experimental Protocol: Apparent solubility in phosphate buffered saline at pH 7.4 after 2 hrs
- Type: ADME
Could you please report measured solubility at 2 h for the items listed next?

Problem: What value of measured solubility at 2 h is listed for COC(=O)NC(Cc1ccc(NC(=N)N)cc1)P(=O)(Oc1ccccc1)Oc1ccccc1 (configuration not stated) ?
Result: > 200 µM

Problem: Entry COC(=O)NC(Cc1ccc(NC(=N)N)cc1)P(=O)(Oc1ccc(NC(C)=O)cc1)Oc1ccc(NC(C)=O)cc1 (configuration not stated) please
Result: > 200 µM
